Data credit: PubChem BioAssay (NCI)

# Assay comment: NCI Yeast Anticancer Drug Screen. Data for the bub3 strain (AID 167)
# Condition set: S. cerevisiae bub3 mutant strain, at 33.0 µM, hits give high values
The panel holds about 79,000 compounds, 15% with a hit somewhere; the sample as a whole holds those more often.
Readout name: growth inhibition (%)
Kindly provide the numeric value in % only, without the unit symbol.

Name the reported growth inhibition value associated with the compound Clc1ccccc1C1OC1c1ccccc1Cl (stereo unspecified)
-42

Entry to check: `Cc1ccc(-n2cc(-c3ccc(Cl)cc3)c(C#N)c2N)cc1`
-2

Proceed to `S=C(N/N=C(/c1ccccc1)c1ccccn1)N1CCCCCC1`
13

And what about the compound `COc1ccc2ccc3ccccc3c2c1C=O` ?
-2

Cool, now COc1cc(C2c3cc4c(cc3OC(Nc3ccccc3)C2C)OCO4)cc(OC)c1O (stereo unspecified)
0

Let us now turn to `NC1=NS(=O)(=O)N=C(N)C1=Cc1ccc([N+](=O)[O-])o1`
-27

###

For each entry below, report its growth inhibition value.
# Assay comment: NCI Yeast Anticancer Drug Screen. Data for the mec2-1 strain (AID 157)
# Condition set: S. cerevisiae mec2-1 strain, at 5.0 µM (retest, dose inferred, filed as 0.5), hits give high values
Compounds without any hit were thinned out: in the full panel of roughly 79,000, 15% have a hit.
Kindly answer with a numeric value in %, unit omitted.

Returns the measured growth inhibition for the input molecule. Input: `O=Cc1cccc2ccc3ccccc3c12`
-45

Now this one: `O=C(NC(Nc1ccc(F)c(Cl)c1)(C(F)(F)F)C(F)(F)F)C(C(F)(F)F)C(F)(F)F`
3

Let us now turn to `[O-][n+]1c2ccc(O)cc2nc2ccc(Br)cc21`
2

Same read-out for `CCNc1nnc(CSc2nc(-c3ccccc3)c(-c3ccccc3)[nH]2)s1` ?
-8

`COc1ccc2sc3cccc(NCCN(C)C)c3c(=O)c2c1` ?
-3

How about `O=C1Nc2ccccc2/C1=C/COc1ccccc1` ?
13

Also need `CC(=O)SCCC[Si](C)(C)CCCSC(C)=O` , thanks.
-2

Thanks! And CCOC(=O)C(NC(=O)c1ccccc1)(N1CCN(c2cc3c(cc2F)c(=O)c(C(=O)O)cn3C2CC2)CC1)C(F)(F)F (centres undefined) ?
-6

`O=C(O)CNc1ccc(Cl)c(Cl)c1` ?
-7

Ok, now `CC(C)/C(Cl)=N\OC(=O)Nc1ccc(F)cc1`
35

Would you mind doing `NNC(=O)CCc1ccc2ccc3ccccc3c2c1` as well?
-1

Next: `COc1ccc2nc3c([N+](=O)[O-])ccc(NCCN(C)C)c3c(NCCN(C)C)c2c1`
15

Proceed to `Nc1ncncc1C(C1=C(O)COC1=O)C1=C(O)COC1=O`
-15

Thanks! And `N#CN=Nc1cc(Cl)c(N=NC#N)cc1Cl` ?
12

What would you report for `O=C(O)c1ccccc1NC(=S)c1ccccc1` ?
63

Consider next the molecule `O=C1c2ccccc2C(=O)c2c(NC3CCCCC3)ccc(Nc3ccc(S(=O)(=O)O)cc3)c21` in the same way.
-14

Please do the same for `COc1ccc(/C=C/C(=O)C(C)(C)Br)cc1` as well.
11

Can you handle N#CC(C(=O)Nc1ccccc1)C1=C(Cl)C(=O)c2ccccc2C1=O (centres undefined) next?
73

What do you have for `O=[N+]([O-])c1ccc(=S)[nH]c1` ?
-9

Another: `COc1cccc2nc3ccccc3nc12`
-5

Consider next the molecule `COc1ccc(Br)c(C(=O)Sc2nnnn2-c2cccc(Cl)c2)c1` in the same way.
40

Okay, and `NCCNc1ccc(NCCN)c2c1C(=O)c1c(O)ccc(O)c1C2=O` ?
14

Could you do the same for CC(C)=CC(=O)O[C@@H]1CC(C)(C)CC2C3=CCC4[C@]56CC[C@](O)(OC5)C(C)(C)C6CC[C@@]4(C)C3(C)CC[C@]21C(=O)O (some centres undefined) , please?
27

Also `COC(=O)c1ccc([N+](=O)[O-])c(O)c1` ?
-7

Now consider `Cc1cc(I)ccc1N` .
51

Okay, and `N/C(=N\OC(=O)NC(Cl)=C(Cl)Cl)c1cc(C(F)(F)F)cc(C(F)(F)F)c1` ?
36

Okay, and C/C(=N\O)C1CC2C=C(C#N)C1N(Cc1ccccc1)C2 (centres undefined) ?
-16

Next molecule: `O=C1c2ccccc2C(=O)c2cc(CBr)ccc21`
32

Also check CCCCCCCCCCCCCCC(C(=O)[O-])[n+]1ccccc1 (centres undefined)
-2

Next: `CCC(=O)c1cccc2ccccc12`
5

Next up: Cc1ccc(C2C(Cl)C(=O)N2n2cnc3ccccc3c2=O)cc1 (centres undefined)
-16

Record: `CSC1=NNC(SC)=NN1`
44

Also `COC(=O)CSSCc1ccc([N+](=O)[O-])cc1` , if possible.
-8

Try this molecule too: `NC(=O)NN=C(CS)CS`
1

Further, for `Oc1ccc(NCn2c(=S)sc3ccccc32)cc1` ?
63

Please give the result for `CCCCCCCCCCCCCCCCCCNC` too.
50

What do you get for `CC(C)c1ccccc1NC(=O)/C(Cl)=C(\Cl)C(=O)O` ?
26

Please answer likewise for OC1CCCc2c1cc1ccc3cccc4ccc2c1c34 (centres undefined)
12

Record: O=C1OC(CCl)CN1/N=C/c1ccc([N+](=O)[O-])o1 (centres undefined)
9

How about this molecule: CCc1ncnc2cc(OCC3CO3)c(OC)cc12 (centres undefined)
26

And what about the molecule `O=c1ssc2ncccc12` ?
14

One more molecule: `COc1ccc(/C(C)=N/OC(=O)c2c(-c3ccccc3Cl)noc2C)cc1CN1CCOCC1`
68

Queued: `N#CSc1ccc(S(N)(=O)=O)cc1`
51

Next record, please: `Cc1ccc(-n2cc(-c3ccc(Cl)cc3)c(C#N)c2N)cc1`
-3

And COC(=O)C1=C(C(=O)OC)C2(C)C=CC1O2 (centres undefined) ?
-43

And then O=[N+]([O-])CC(SCc1ccccc1)c1ccc2c(c1)OCO2 (centres undefined) , what is it?
26

Now the same for CC(C)C1=CCC2C(=C1)CCC1C(C)(C(=O)O)CCCC21C (centres undefined) (tested in a mixture with another compound)
29

Here is the next molecule: `Cc1ccc(CSC(N)=Nc2ccccc2)cc1C`
-11

Same question for `Cc1ccc2ccc3cccc4ccc1c2c34` please.
3
